# ASSAY SUMMARY: Viability of fibroblast cells, MTT assay
# Type: cell-based, Human
# ASSAY SETUP: human, primary dermal fibroblast cells; 10 µmol/L, 24 h, MTT; ± 2; read-out: Viability of fibroblast cells

SUBSTANCE	viability at 24 h, 10 µmol/L / %
Ac-RTTRS-OH [Peptide 18, Ac-Arg-Thr-Thr-Arg-Ser-OH]	103
Ac-RTTRS-NH2 [Peptide 22, Ac-Arg-Thr-Thr-Arg-Ser-NH2]	99
H-KTTRS-NH2 [Peptide 13, H-Lys-Thr-Thr-Arg-Ser-NH2]	139
H-RTTKS-OH [Peptide 25, H-Arg-Thr-Thr-Lys-Ser-OH]	87
H-KTTKS-OH [Peptide 1, H-Lys-Thr-Thr-Lys-Ser-OH, reference compound]	82
H-RTTKS-NH2 [Peptide 29, H-Arg-Thr-Thr-Lys-Ser-NH2]	111

###

# ASSAY SUMMARY: Viability of fibroblast cells, MTT assay
# Format: cell-based, Human
# ASSAY SETUP: human, primary dermal fibroblast cells; 10 µmol/L, 24 h, MTT; ± 2; read-out: Viability of fibroblast cells
Residues, ends and D or L forms follow the SMILES beside them.

MOLECULE	UNIT SYMBOL	viability at 24 h, 10 µmol/L
CCCCCCCCCCCCCCCC(=O)N[C@@H](CCCCN)C(=O)N[C@H](C(=O)N[C@H](C(=O)N[C@@H](CCCCN)C(=O)N[C@@H](CO)C(N)=O)[C@@H](C)O)[C@@H](C)O [Peptide 8, Pal-Lys-Thr-Thr-Lys-Ser-NH2] (HELM PEPTIDE1{[CCCCCCCCCCCCCCCC(=O)[*:2]].K.T.T.K.S.[am]}$$$$V2.0)	%	83
C[C@@H](O)[C@H](NC(=O)[C@H](CCCCN)NC(=O)CCCCC1CCSS1)C(=O)N[C@H](C(=O)N[C@@H](CCCCN)C(=O)N[C@@H](CO)C(N)=O)[C@@H](C)O (mixture of isomers) [Peptide 7, Lip-Lys-Thr-Thr-Lys-Ser-NH2]	%	89
CCCCCCCCCCCCCCCC(=O)N[C@@H](CCCCN)C(=O)N[C@H](C(=O)N[C@H](C(=O)N[C@@H](CCCNC(=N)N)C(=O)N[C@@H](CO)C(N)=O)[C@@H](C)O)[C@@H](C)O [Peptide 16, Pal-Lys-Thr-Thr-Arg-Ser-NH2] (HELM PEPTIDE1{[CCCCCCCCCCCCCCCC(=O)[*:2]].K.T.T.R.S.[am]}$$$$V2.0)	%	114
C[C@@H](O)[C@H](NC(=O)[C@H](CCCCN)NC(=O)CCCCC1CCSS1)C(=O)N[C@H](C(=O)N[C@@H](CCCCN)C(=O)N[C@@H](CO)C(=O)O)[C@@H](C)O (mixture of isomers) [Peptide 3, Lip-Lys-Thr-Thr-Lys-Ser-OH]	%	81
C[C@@H](O)[C@H](NC(=O)[C@H](CCCNC(=N)N)NC(=O)CCCCC1CCSS1)C(=O)N[C@H](C(=O)N[C@@H](CCCNC(=N)N)C(=O)N[C@@H](CO)C(=O)O)[C@@H](C)O (mixture of isomers) [Peptide 19, Lip-Arg-Thr-Thr-Arg-Ser-OH]	%	81
C[C@@H](O)[C@H](NC(=O)[C@H](CCCCN)NC(=O)CCCCC1CCSS1)C(=O)N[C@H](C(=O)N[C@@H](CCCNC(=N)N)C(=O)N[C@@H](CO)C(=O)O)[C@@H](C)O (mixture of isomers) [Peptide 11, Lip-Lys-Thr-Thr-Arg-Ser-OH]	%	105
C[C@@H](O)[C@H](NC(=O)[C@H](CCCNC(=N)N)NC(=O)CCCCC1CCSS1)C(=O)N[C@H](C(=O)N[C@@H](CCCCN)C(=O)N[C@@H](CO)C(=O)O)[C@@H](C)O (mixture of isomers) [Peptide 27, Lip-Arg-Thr-Thr-Lys-Ser-OH]	%	91
